Assay: Binding affinity to 5'-FAM/3'-TAMARA labelled c-KIT1 G-quadruplex DNA (unknown origin) assessed as change in melting temperature at 1 uM by FRET assay
TEST_READOUT: ΔTm (°C)

Solved entries:
COc1cc2c(cc1OC)-c1nc3ccccc3c(Cl)c1CC2 ... 0.1
COc1cc2c(cc1OC)-c1nc3ccccc3c(NCCN(C)C)c1CC2 ... 12.1
CCN(CC)CCNc1c2c([n+](C)c3ccccc13)-c1cc(OC)c(OC)cc1CC2 ... 8.5
CCN(CC)CCCNc1c2c([n+](C)c3ccccc13)-c1cc(OC)c(OC)cc1CC2 ... 7.5
COc1cc2c(cc1OC)-c1c(c(NCCCN(C)C)c3ccccc3[n+]1C)CC2 ... 8.6

[a] CCN(CC)CCCNC(=O)c1c2c(nc3ccccc13)-c1cc(OC)c(OC)cc1CC2
[b] COc1cc2c(cc1OC)-c1c(c(NCCN(C)C)c3ccccc3[n+]1C)CC2
[c] COc1cc2c(cc1OC)-c1nc3ccccc3c(NCCN3CCCC3)c1CC2
[d] COc1cc2c(cc1OC)-c1nc3ccccc3c(NCCCN3CCN(C)CC3)c1CC2
[e] COc1cc2c(cc1OC)-c1nc3ccccc3c(C(=O)NCCN3CCCC3)c1CC2
Q. # sort list by recorded ΔTm, greatest to least Dear reader, please state the labels in the requested order.
A. d, c, b, a, e
(d: 18.7 °C, c: 11.1 °C, b: 6.7 °C, a: 3.4 °C, e: 2.2 °C)
